# study.target: UniProt P35372
# measurement.notes: biochemical
# Description: Agonist activity at human mu opioid receptor expressed in CHO cell membranes incubated for 1 hr by [35S]GTPgammaS binding assay
endpoint.label: pEC50
Give bare numbers, as −log10 of the molar value.

Field: example entries. Status: answers known.
## Task Determine from records and report pEC50 for Cc1ccccc1-c1cnc2c(c1)C[C@@]1(OCCCc3ccccc3)[C@H]3Cc4ccc(O)c5c4[C@@]1(CCN3CC1CC1)[C@H]2O5
## Result 8.26

## Task Determine from records and report pEC50 for Cc1cccc(C)c1-c1cnc2c(c1)C[C@@]1(OCCCc3ccccc3)[C@H]3Cc4ccc(O)c5c4[C@@]1(CCN3CC1CC1)[C@H]2O5
## Result 8.47

## Task Determine from records and report pEC50 for Oc1ccc2c3c1O[C@H]1c4ncc(-c5ccccc5)cc4C[C@@]4(OCCCC5CCCCC5)[C@@H](C2)N(CC2CC2)CC[C@]314
## Result 7.63

Further cases:
## Task Determine from records and report pEC50 for Oc1ccc2c3c1O[C@H]1c4ncc(-c5ccccn5)cc4C[C@@]4(OCCCc5ccccc5)[C@@H](C2)N(CC2CC2)CC[C@]314
## Result 6.28

###

# study.target: Delta-type opioid receptor (Homo sapiens)
# Sequence (P41143 whole entry): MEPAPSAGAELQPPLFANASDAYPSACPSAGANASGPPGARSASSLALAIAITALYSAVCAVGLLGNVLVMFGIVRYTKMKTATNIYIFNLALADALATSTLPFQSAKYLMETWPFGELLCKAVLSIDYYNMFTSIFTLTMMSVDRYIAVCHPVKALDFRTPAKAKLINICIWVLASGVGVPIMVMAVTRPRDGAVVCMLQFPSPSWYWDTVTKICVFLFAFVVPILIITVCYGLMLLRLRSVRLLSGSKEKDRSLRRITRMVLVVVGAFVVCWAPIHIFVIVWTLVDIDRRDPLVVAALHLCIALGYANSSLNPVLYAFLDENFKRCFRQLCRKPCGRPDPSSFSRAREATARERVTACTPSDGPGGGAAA
# measurement.notes: Displacement of [3H]-diprenorphine from human delta opioid receptor expressed in CHO cell membranes incubated for 1 hr by competition radioligand binding assay
Binarize Ki at 60 nM; below is satisfied, at or above is not satisfied.

Before answering, review these 3 worked examples.
## Task A record lists Oc1cccc(-c2cnc3c(c2)C[C@@]2(OCCCc4ccccc4)[C@H]4Cc5ccc(O)c6c5[C@@]2(CCN4CC2CC2)[C@H]3O6)c1 . Is its Ki below 60 nM?
## Result satisfied

## Task A record lists Cc1cc(-c2cnc3c(c2)C[C@@]2(OCCCc4ccccc4)[C@H]4Cc5ccc(O)c6c5[C@@]2(CCN4CC2CC2)[C@H]3O6)ccn1 . Is its Ki below 60 nM?
## Result not satisfied

## Task A record lists CC(=O)Nc1ccc(-c2cnc3c(c2)C[C@@]2(OCCCc4ccccc4)[C@H]4Cc5ccc(O)c6c5[C@@]2(CCN4CC2CC2)[C@H]3O6)cc1 . Is its Ki below 60 nM?
## Result not satisfied

Further cases:
## Task A record lists Oc1ccc2c3c1O[C@H]1c4ncc(-c5cccnc5)cc4C[C@@]4(OCCCc5ccccc5)[C@@H](C2)N(CC2CC2)CC[C@]314 . Is its Ki below 60 nM?
## Result satisfied

## Task A record lists Oc1ccc2c3c1O[C@H]1c4ncc(-c5ccccc5C5CC5)cc4C[C@@]4(OCCCc5ccccc5)[C@@H](C2)N(CC2CC2)CC[C@]314 . Is its Ki below 60 nM?
## Result not satisfied

## Task A record lists Cc1cccc(C)c1-c1cnc2c(c1)C[C@@]1(OCCCc3ccccc3)[C@H]3Cc4ccc(O)c5c4[C@@]1(CCN3CC1CC1)[C@H]2O5 . Is its Ki below 60 nM?
## Result not satisfied

###

# study.target: Mu-type opioid receptor (Homo sapiens)
# Sequence (P35372 whole entry): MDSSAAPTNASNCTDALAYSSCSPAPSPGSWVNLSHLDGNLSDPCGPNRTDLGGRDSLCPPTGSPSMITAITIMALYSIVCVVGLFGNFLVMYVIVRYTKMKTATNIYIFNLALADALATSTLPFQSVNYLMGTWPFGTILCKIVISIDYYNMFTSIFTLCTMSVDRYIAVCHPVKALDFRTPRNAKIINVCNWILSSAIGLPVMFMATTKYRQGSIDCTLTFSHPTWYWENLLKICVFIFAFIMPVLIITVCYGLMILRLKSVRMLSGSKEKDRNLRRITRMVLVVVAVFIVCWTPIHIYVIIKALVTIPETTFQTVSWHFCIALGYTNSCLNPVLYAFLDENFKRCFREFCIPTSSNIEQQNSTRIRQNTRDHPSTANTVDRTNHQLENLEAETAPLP
Binarize Ki at 10 nM; below is 1.0, at or above is 0.0.

Before answering, review these 5 worked examples.
## Task A record lists Cn1cc(-c2cnc3c(c2)C[C@@]2(OCCCc4ccccc4)[C@H]4Cc5ccc(O)c6c5[C@@]2(CCN4CC2CC2)[C@H]3O6)cn1 . Is its Ki below 10 nM?
## Result 1.0

## Task A record lists Oc1ccc2c3c1O[C@H]1c4ncc(-c5ccccc5)cc4C[C@@]4(OCCCC5CCCCC5)[C@@H](C2)N(CC2CC2)CC[C@]314 . Is its Ki below 10 nM?
## Result 0.0

## Task A record lists Oc1ccc2c3c1O[C@H]1c4ncc(-c5ccc(Cl)cc5)cc4C[C@@]4(OCCCc5ccncc5)[C@@H](C2)N(CC2CC2)CC[C@]314 . Is its Ki below 10 nM?
## Result 1.0

## Task A record lists Oc1ccc2c3c1O[C@H]1c4ncc(-n5cccc5)cc4C[C@@]4(OCCCc5ccccc5)[C@@H](C2)N(CC2CC2)CC[C@]314 . Is its Ki below 10 nM?
## Result 0.0

## Task A record lists Cc1nnc(-c2cnc3c(c2)C[C@@]2(OCCCc4ccccc4)[C@H]4Cc5ccc(O)c6c5[C@@]2(CCN4CC2CC2)[C@H]3O6)o1 . Is its Ki below 10 nM?
## Result 1.0

Now look at this one.
## Task A record lists Oc1ccc2c3c1O[C@H]1c4ncc(-c5cnccn5)cc4C[C@@]4(OCCCc5ccccc5)[C@@H](C2)N(CC2CC2)CC[C@]314 . Is its Ki below 10 nM?
## Result 0.0
